Provide the reported TGI of each item.
Tested on: RPMI-8226 leukemia
protocol: NCI tumour cell line growth inhibition, 48 h
*1 amine or outer side, *2 acyl side, *3 side chain or, on linkers, in order; H or OH if unused. Where a SMILES comes first, the peptide text is derived from it. Bridges are numbered along the chain shown (N, C = ends). [ ]: non-standard residue; d: D form. Adda = CO[C@@H](Cc1ccccc1)[C@@H](C)/C=C(C)/C=C/[C@H](N[*:1])[C@H](C)C(=O)[*:2]; dAsp(3S-Me) = C[C@H](C(=O)[*:3])[C@@H](N[*:1])C(=O)[*:2]; d(γGlu) = O=C(O)[C@@H](CCC(=O)[*:2])N[*:1]; NMeDha = C=C(NC)C(=O)O

Sample records with TGI:
For OC1(c2ccccc2)c2ccccc2NC2=NCCN21 (stereo not given) , write its TGI.
45.8 µM

For the molecule CCCCc1ccc(Nc2cc(=O)n(C)c(=O)[nH]2)cc1 , report TGI.
> 100 µM

Report TGI, nothing else, for this molecule: C=C1C(=O)N[C@H](C)C(=O)N[C@@H](CC(C)C)C(=O)N[C@@H](C(=O)O)[C@H](C)C(=O)N[C@@H](CCCN=C(N)N)C(=O)N[C@@H](/C=C/C(C)=C/[C@H](C)[C@H](Cc2ccccc2)OC)[C@H](C)C(=O)N[C@@H](C(=O)O)CCC(=O)N1C (R[Adda][d(γGlu)][NMeDha][dA]L[dAsp(3S-Me)]-OH; lactam N-7)
> 5 µM

Supply measured TGI of COC(=O)[C@H](NC(=O)OC(C)(C)C)[C@H]1COC(C)(C)O1 in your reply.
> 100 µM

Identify measured TGI corresponding to O=[N+]([O-])c1ccc(C2=NN(c3ccccc3)C[N+](c3ccc(Br)cc3)=N2)cc1
> 100 µM

Report TGI, nothing else, for this molecule: CCc1cccc(C)c1NC(=O)C1=C(C)NC(C)=C(C(=O)Nc2c(C)cccc2CC)C1c1ccc([N+](=O)[O-])cc1
57.3 µM

Field: TGI. Fill in for each record below.
1. Cc1cc2ncn(C3CCCO3)c2cc1C (stereo not given)
2. CN1CCN(C(=S)N(C(=O)c2cccs2)C2CCCCC2)CC1
3. CC(C)=CCc1c(O)c(CC=C(C)C)c2oc(-c3ccc(O)cc3O)c(CC=C(C)C)c(=O)c2c1O
4. COc1cc(C2SC(N)=Nc3c2c(C)nn3C(=O)c2ccc(Cl)cc2)cc(OC)c1OC (stereo not given)

1. > 100 µM
2. > 100 µM
3. 10.9 µM
4. > 10 µM
